target of assay: T1, recombinant human IL4Rα-his protein (in house made) (human, UniProt P24394 26-232, limits assumed)
T1 construct: also called Human IL4Ra-his
assay remarks: SPR (Biacore), antibody captured, IL4Rα-his flowed
Hi there, I'd appreciate the recorded Start (RU) for every entry that follows.
Numbers only; they are read as RU.

// Start (RU) value for huC2C1A1A1-V15 (antibody, human IgG4, V domains shown, Humanized, human IgG4/kappa) VH: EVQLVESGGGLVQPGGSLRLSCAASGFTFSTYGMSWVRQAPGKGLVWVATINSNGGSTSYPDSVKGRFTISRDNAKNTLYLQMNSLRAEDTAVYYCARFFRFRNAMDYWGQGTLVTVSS VL: DIQMTQSPSSLSASVGDRVTITCRTSENIYSYLAWYQQKPGKAPKFLVYNAKTLAEGVPSRFSGSGSGTDFTLTISSLQPEDFATYYCQHYYGPPTWTFGQGTKVEIKR : 69

// Start (RU) value for huC2C1A1A1-V2 (antibody, human IgG4 S228P, kappa, V domains shown, Humanized, human IgG4/kappa) VH: EVQLVESGGGLVQPGGSLRLSCAASGFTFSTYGMSWVRQAPGKGLVWVSTINSNGGSTSYPDSVKGRFTISRDNAKNTLYLQMNSLRAEDTAVYYCARFFRFRNAMDYWGQGTLVTVSS VL: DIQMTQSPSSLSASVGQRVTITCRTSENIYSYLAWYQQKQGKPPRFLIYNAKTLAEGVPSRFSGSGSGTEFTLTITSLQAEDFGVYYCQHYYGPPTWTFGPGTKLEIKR : 50.4

// Start (RU) value for huC2C1A1A1-V8 (antibody, human IgG4 S228P, kappa, V domains shown, Humanized, human IgG4/kappa) VH: EVQLVESGGGLVQPGGSLRLSCAASGFTFSTYGMSWVRQSPDKRLEWVSTINSNGGSTSYPDSVKGRFTISRDNAKNTLYLQMRSLRAEDTAVYYCARFFRFRNAMDYWGQGTLVTVSS VL: DIQMTQSPSSLSASVGDRVTITCRTSENIYSYLAWYQQKPGKAPKFLIYNAKTLAEGVPSRFSGSGSGTDFTLTISSLQPEDFATYYCQHYYGPPTWTFGQGTKVEIKR : 65.2
